These data points were gathered from paper PMC6414199.

- assay.target: T1, mCerulean3-Bcl-XL (human, UniProt Q07817-1 1-233)
- T1 construct: Bcl-XL, human; GGS linker between mCerulean3 and Bcl-XL; also called ^CBcl-XL; ^cBcl-XL; source: MCF-7 and BMK-DKO, stably transfected clones, in live cells; not shown: mCerulean3, N-terminal, kept
- T1 sequence (Q07817 whole entry): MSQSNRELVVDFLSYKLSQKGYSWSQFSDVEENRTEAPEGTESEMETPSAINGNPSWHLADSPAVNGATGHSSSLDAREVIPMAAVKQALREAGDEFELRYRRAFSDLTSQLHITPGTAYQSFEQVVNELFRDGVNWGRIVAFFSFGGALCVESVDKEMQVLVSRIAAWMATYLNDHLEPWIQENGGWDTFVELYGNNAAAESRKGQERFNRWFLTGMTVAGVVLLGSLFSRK
- test.name: FRET or BRET; FLIM-FRET in live MCF-7 cells: mCer3-Bcl-XL or mCer3-Bcl-2 stably expressed (donor), Venus-BH3 protein transiently expressed (acceptor); binding curves of FLIM-FRET efficiency against the Venus:mCer3 intensity ratio, 25 C; untreated, DMSO, 20 uM ABT-263 (18-24 h) or 1.25-20 uM A-1155463, A-1331852, ABT-263; R values interpolated at ratio 0.5 (Bcl-XL) or 0.25 (Bcl-2), ^VBad4E signal subtracted
- condition.details: partners not purified
quantity.kind: R_(ABT-263), % of FRET signal left with 20 uM ABT-263 (%)
Unit % implied. Number only.

Query: Form field: reported R_(ABT-263), % of FRET signal left with 20 uM ABT-263 of Venus-BimEL-CTS2A (natural protein, mouse, UniProt O54918-1 1-196, looked up, BimEL, mouse; also called ^VBim-CTS2A; ^vBimEL-CTS2A; source: MCF-7, transiently transfected, in live cells; not shown: Venus, N-terminal, kept) MAKQPSDVSSECDREGGQLQPAERPPQLRPGAPTSLQTEPQGNPDGEGDRCPHGSPQGPLAPPASPGPFATRSPLFIFVRRSSLLSRSSSGYFSFDTDRSPAPMSCDKSTQTPSPPCQAFNHYLSAMASIRQSQEEPEDLRPEIRIAQELRRIGDEFNETYTRRVFANDYREAEDHPQMVILQLLAFIFALVWRRH
Reply: 88.8
